Would you kindly list growth for each of these compounds?
# System: NCI/ADR-RES ovarian
# experiment description: NCI-60 one-dose screen, 48 h (100 = growth as untreated, 0 = no growth, -100 = all killed)
# condition notes: 10 µM unless noted
# Experimental: Growth inhibition of the NCI/ADR-RES human […] tumor cell line is measured as a screen for anti-cancer activity. Cells are grown in 96 well plates and exposed to the test compound for 48 hours. Compounds are tested at a single concentration, which is 10^-5 M for most compounds. The reported endpoint is percent growth (GI% or GIPRCNT), where numbers from 0 - 100% represent growth inhibition, and numbers from -100% - 0 represent cell death. For example, a value of 40 represents 60% growth inhibition. […]
About 83,000 compounds went through this panel and 20% of them were active in at least one assay; those are over-represented in the sample as a whole.
Give bare numbers, in %.

Answered cases to consult:
[[record]]
compound = "C=C1C(=O)O[C@H]2[C@H]1CC/C(CNC(=O)c1c[nH]c3ccc(F)cc13)=C\\CC[C@@]1(C)O[C@@H]21"
system_under_test = "NCI/ADR-RES ovarian"
value_type = "growth"
recorded_value = 56.3

[[record]]
compound = "C=CC(=O)Nc1ccc(Oc2nccc(Nc3nnc(-c4ccc(C)cc4)s3)n2)cc1"
system_under_test = "NCI/ADR-RES ovarian"
value_type = "growth"
recorded_value = 59.1

[[record]]
compound = "Cc1ccc2c(-c3nnc(N)s3)cc(=O)oc2c1C"
system_under_test = "NCI/ADR-RES ovarian"
value_type = "growth"
recorded_value = 102

[[record]]
compound = "CCN1C(=O)N(CC)C2C1NN=c1s/c(=C\\c3ccc[nH]3)c(=O)n12 (centres undefined)"
system_under_test = "NCI/ADR-RES ovarian"
value_type = "growth"
recorded_value = 8.11


Please give growth for each item listed below.
1. COc1cccc(/C=C/C(=O)c2cccc(Nc3nc(Nc4ccccc4)nc(Nc4ccccc4)n3)c2)c1
2. O=[N+]([O-])c1cc(NS(=O)(=O)c2ccccc2)ccc1NS(=O)(=O)c1ccccc1
3. CC(C)(C)n1cc(-c2ccnc(NCCCNS(=O)(=O)c3ccc(C(F)(F)F)cc3)c2)c(-c2cccc(F)c2)n1
4. COc1ccc(/C=C/C(=O)c2ccc(NC(=O)CSc3nc4c([nH]3)c(=O)n(C)c(=O)n4C)cc2)cc1OC
5. COc1cccc(C(=O)NNc2nc(Cl)nc(Cl)n2)c1

Result:
83.4
105
76.5
96.1
104

* * *

# Tested on: HT29 colon
# experiment description: NCI-60 one-dose screen, 48 h (100 = growth as untreated, 0 = no growth, -100 = all killed)
# condition notes: 10 µM unless noted
The panel holds about 83,000 compounds, 20% with a hit somewhere; the sample as a whole holds those more often.
Rule: growth below 30% gives T, anything at or above gives F.

Example results:
[[record]]
compound = "CCNC(=O)Oc1ccc(/C(=C(/C)Cc2ccc(OC)cc2)c2ccc(OCCN3CCCCC3)cc2)cc1"
class_label = "T"

[[record]]
compound = "C=CCN1C(=O)c2cccc3c(N4CCOCC4)ccc(c23)C1=O"
class_label = "T"

[[record]]
compound = "CC(C)N1C(=O)/C(=c2\\sc3n(c2=O)C2C(NN=3)N(C)C(=O)N2C)c2ccccc21 (centres undefined)"
class_label = "F"

[[record]]
compound = "COCCn1cc(-c2csc(-c3c[nH]c4ccc(Br)cc34)n2)c2cccnc21"
class_label = "T"

[[record]]
compound = "Cc1ccc(C2CC(c3nc(-c4ccc(Cl)cc4)oc3C)=NN2C(=O)c2ccncc2)cc1 (centres undefined)"
class_label = "F"


Ask: Please let me know if CNC(=O)c1cc(Oc2cccc3nc(NC(=O)Nc4cc(C(F)(F)F)ccc4Cl)ccc23)ccn1 shows growth below 30%.
Result: F

Ask: Please let me know if COc1cc(/C=C/C(=O)c2ccc(-n3cc(CN4CCN(c5cc6c(cc5F)c(=O)c(C(=O)O)cn6C5CC5)CC4)nn3)cc2)ccc1O shows growth below 30%.
Result: F

Ask: Please let me know if C=CCOC(=O)C1=C(C)N(CC)C(=O)NC1c1c(Cl)n(C)c2ccccc12 (centres undefined) shows growth below 30%.
Result: F

Ask: Please let me know if CN1CCN(CC(=O)Nc2ccc3ncnc(Nc4ccc(Oc5cccc(C(F)(F)F)c5)c(Cl)c4)c3c2)CC1 shows growth below 30%.
Result: T

The measurements presented in this section are drawn from PubChem BioAssay (NCI).
